Biological target: adenosine A2b receptor (Homo sapiens, UniProt P29275)
Sequence (P29275 1-332): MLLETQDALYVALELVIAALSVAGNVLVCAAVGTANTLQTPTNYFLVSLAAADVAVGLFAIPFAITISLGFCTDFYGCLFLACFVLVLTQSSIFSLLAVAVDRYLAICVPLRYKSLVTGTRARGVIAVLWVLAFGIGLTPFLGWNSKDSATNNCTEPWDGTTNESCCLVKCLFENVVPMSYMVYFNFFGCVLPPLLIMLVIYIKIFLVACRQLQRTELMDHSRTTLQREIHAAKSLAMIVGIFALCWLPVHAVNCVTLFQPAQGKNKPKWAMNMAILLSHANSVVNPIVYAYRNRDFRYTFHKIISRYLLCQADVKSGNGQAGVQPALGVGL
Assay: Indirect determination of adenosine agonism by gene expression (luciferase), A2b cells
Details: stably transfected CHO cells; 50% of maximum luciferase stimulation
Listed molecules paired with reported EC50
Only the number, expressed in nM, is required.

Consider the worked cases shown below.
N#Cc1c(N)nc(SCc2csc(-c3ccc(Cl)cc3)n2)c(C#N)c1[C@H]1CC[C@H](O)CC1 [Example 3] : 558
Cc1nc(SCc2csc(-c3ccc(C(=O)O)cc3)n2)c(C#N)c(C2CCCCO2)c1C#N (single isomer, unassigned; (+)) [Example 56] : 51
N#Cc1c(N)nc(SCc2csc(-c3ccc(Cl)cc3)n2)c(C#N)c1C1CCCCO1 (single isomer, unassigned; ent-2) [Example 15] : 670

We now examine a further molecule.
Given N#Cc1c(N)nc(SCc2csc(-c3ccc(C(=O)O)cc3)n2)c(C#N)c1C1CCCCO1 (single isomer, unassigned) [Example 23] , state its recorded EC50. 75

* * *

Target: adenosine A1 receptor (Homo sapiens)
Construct: expressed in transfected cells; host or cells: CHO (Chinese Hamster Ovary)
Assay: Indirect determination of adenosine agonism by gene expression (luciferase), A1 cells
Assay type: cell-based
Settings: 1 μM forskolin; stably transfected CHO cells; 50% inhibition of luciferase answer
measurementType: log10(EC50) (log10 of the value in nM)
All values: log10 EC50 [nM].

Looking for the measured log10(EC50) of "N#Cc1c(N)nc(SCc2csc(-c3ccc(Cl)cc3)n2)c(C#N)c1C1CCCCC1" , can you help? 0.58

Need log10(EC50), item N#Cc1c(N)nc(SCc2csc(-c3ccc(Cl)cc3)n2)c(C#N)c1C1CCCCO1 (single isomer, unassigned; ent-2) 1.00

Look up log10(EC50): "Cc1sc(-c2ccc(Cl)cc2)nc1CSc1nc(N)c(C#N)c(C2CCCCC2)c1C#N" 2.03

// returns reported log10(EC50) for input Cc1nc(SCc2csc(-c3ccc(C(=O)O)cc3)n2)c(C#N)c(C2CCCCO2)c1C#N (single isomer, unassigned; (+)) -0.10

* * *

Target: UniProtKB P29274
Sequence (P29274 whole entry): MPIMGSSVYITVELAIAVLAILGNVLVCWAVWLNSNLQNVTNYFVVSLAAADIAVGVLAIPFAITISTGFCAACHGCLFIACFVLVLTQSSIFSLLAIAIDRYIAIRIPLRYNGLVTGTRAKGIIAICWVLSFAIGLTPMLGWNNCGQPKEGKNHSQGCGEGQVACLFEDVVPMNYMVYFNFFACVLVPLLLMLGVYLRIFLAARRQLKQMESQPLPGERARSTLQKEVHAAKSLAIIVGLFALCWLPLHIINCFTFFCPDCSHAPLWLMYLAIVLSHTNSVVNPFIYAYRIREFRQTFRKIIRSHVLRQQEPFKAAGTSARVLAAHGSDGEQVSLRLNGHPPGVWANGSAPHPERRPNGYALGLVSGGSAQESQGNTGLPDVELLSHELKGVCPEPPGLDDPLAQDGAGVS
Experiment: Indirect determination of adenosine agonism by gene expression (luciferase), A2a cells
Conditions: stably transfected CHO cells; 50% of maximum luciferase stimulation
Form field: pEC50 (one value per entry).
Note on units: pEC50 is unitless, being -log10 of a concentration expressed in mol/L.

Could you share which pEC50 value was measured for N#Cc1c(N)nc(SCc2csc(-c3ccc(Cl)cc3)n2)c(C#N)c1C1CCCCO1 (single isomer, unassigned; ent-2) ? 6.42

# pEC50 lookup, item "CN1CCN(CCCNc2nc(SCc3csc(-c4ccc(Cl)cc4)n3)c(C#N)c(C3CCCCC3)c2C#N)CC1" 5.83

Please look up its pEC50: "N#Cc1c(N)nc(SCc2cccc(C(N)=O)c2)c(C#N)c1C1CCCCC1" 6.65

Please give the measured pEC50 for this compound: "N#Cc1c(N)nc(SCc2csc(-c3ccc(Cl)cc3)n2)c(C#N)c1[C@H]1CC[C@H](O)CC1" 5.90

# input compound: N#Cc1c(N)nc(SCc2csc(-c3ccc(C(=O)O)cc3)n2)c(C#N)c1C1CCCCO1 (single isomer, unassigned) ; wanted: its pEC50 6.21

Given "N#Cc1c(N)nc(SCc2csc(-c3ccc(Cl)cc3)n2)c(C#N)c1[C@H]1CC[C@@H](O)CC1" , state its recorded pEC50. 5.96

* * *

Molecular target: adenosine A1 receptor (Homo sapiens, UniProt P30542)
Construct: expressed in transfected cells; host or cells: CHO (Chinese Hamster Ovary)
Sequence (P30542 whole entry): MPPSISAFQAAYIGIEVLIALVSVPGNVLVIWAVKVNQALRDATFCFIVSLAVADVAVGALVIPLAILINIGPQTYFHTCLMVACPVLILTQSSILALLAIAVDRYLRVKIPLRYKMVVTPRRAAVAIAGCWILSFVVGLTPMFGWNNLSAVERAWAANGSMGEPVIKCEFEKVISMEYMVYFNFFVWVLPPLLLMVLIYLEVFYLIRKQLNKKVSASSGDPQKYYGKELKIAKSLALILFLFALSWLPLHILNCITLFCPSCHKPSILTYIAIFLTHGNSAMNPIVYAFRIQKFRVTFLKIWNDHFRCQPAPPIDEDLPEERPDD
Experiment: Indirect determination of adenosine agonism by gene expression (luciferase), A1 cells
Assay type: cell-based
Conditions: 1 μM forskolin; stably transfected CHO cells; 50% inhibition of luciferase answer
measurementType: EC50
State the result as a value with its unit after it.

Look over these answered cases.
N#Cc1c(N)nc(SCc2csc(-c3ccc(Cl)cc3)n2)c(C#N)c1C1CCN(C(=O)CO)CC1 : 8.9 nM
N#Cc1c(N)nc(SCc2cccc(C(N)=O)c2)c(C#N)c1C1CCCCC1 : 0.08 nM
N#Cc1c(N)nc(SCc2coc(-c3ccc(Cl)cc3)n2)c(C#N)c1C1CCCOC1 (centres unmarked) : 11 nM
N#Cc1c(N)nc(SCc2csc(-c3ccc(C(=O)O)cc3)n2)c(C#N)c1C1CCCCO1 (single isomer, unassigned) : 0.4 nM

Can you look up the measured EC50 of N#Cc1c(N)nc(SCc2csc(-c3ccc(C(=O)O)cc3)n2)c(C#N)c1C1CCCOC1 (single isomer, unassigned; (+)) for me? 0.06 nM

Could you tell me which EC50 is on file for "N#Cc1c(N)nc(SCc2csc(-c3ccc(Cl)cc3)n2)c(C#N)c1[C@H]1CC[C@@H](O)CC1" ? 2.9 nM

Please give the measured EC50 for this compound: "N#Cc1c(N)nc(SCc2coc(-c3ccc(F)c(Cl)c3)n2)c(C#N)c1[C@H]1CC[C@@H](O)CC1" 17 nM

# query: EC50 of entry "N#Cc1c(N)nc(SCc2csc(-c3ccc(Cl)cc3)n2)c(C#N)c1[C@H]1CC[C@H](O)CC1" 0.8 nM

* * *

Target: adenosine A2b receptor (Homo sapiens)
Assay: Indirect determination of adenosine agonism by gene expression (luciferase), A2b cells
Conditions: stably transfected CHO cells; 50% of maximum luciferase stimulation
pEC50: −log10 of the molar value.
Listing of entries alongside the reported pEC50.

As a guide, the following entries are already answered.
N#Cc1c(N)nc(SCc2coc(-c3ccc(F)c(Cl)c3)n2)c(C#N)c1[C@H]1CC[C@@H](O)CC1 : < 5.52
N#Cc1c(N)nc(SCc2coc(-c3ccc(Cl)cc3)n2)c(C#N)c1C1CCCOC1 (stereo not shown) : 6.02
Cc1sc(-c2ccc(Cl)cc2)nc1CSc1nc(N)c(C#N)c(C2CCCCC2)c1C#N : < 5.52

Alright, here's another compound for you.
Looking for the measured pEC50 of N#Cc1c(N)nc(SCc2cccc(C(=O)O)c2)c(C#N)c1C1CCCCO1 (stereo not shown) , can you help? < 5.52

* * *

Target: adenosine A1 receptor (Homo sapiens, UniProt P30542)
Construct: expressed in transfected cells; host or cells: CHO (Chinese Hamster Ovary)
Assay: Indirect determination of adenosine agonism by gene expression (luciferase), A1 cells
Type: cell-based
Settings: 1 μM forskolin; stably transfected CHO cells; 50% inhibition of luciferase answer
The following compounds are listed with their measured EC50 values.
Numbers only here, please. The scale is nM.

Recorded results for 2 compounds are shown here.
N#Cc1c(N)nc(SCc2cccc(C(=O)O)c2)c(C#N)c1C1CCCCO1 (stereo not drawn) : 6.8
N#Cc1cnc(SCc2csc(-c3ccc(C(=O)O)cc3)n2)c(C#N)c1C1CCCOC1 (racemic) : 9.5

Now take the following compound into account.
Quick one: EC50 for "CN1CCN(CCCNc2nc(SCc3csc(-c4ccc(Cl)cc4)n3)c(C#N)c(C3CCCCC3)c2C#N)CC1" ? 68
